- Tested on: slow reacting substance of anaphylaxis (SRS-A)
- test_protocol: SRS-A antagonism on isolated guinea pig ileum
- Parameters: species or system guinea pig ileum (SRS-A from rat)
- run_conditions: isolated guinea pig ileum strips, rat SRS-A, tyrode with atropine and mepyramine; 50% inhibition per method; read-out: SRS-A antagonism on Guinea Pig Ileum: Approximate concentration to give inhibition of a than maximal response to SRS-A
Task for the reader: assign each of the following compounds its reported pIC50.
On this scale, pIC50 is minus log10 of a concentration expressed in M (mol/L).

Which measured pIC50 value corresponds to O=c1oc2cc(OCCCCOc3ccccc3)ccc2c(O)c1[N+](=O)[O-] ? 6.00

Please look up its pIC50: O=c1oc2cc(OCCCCCOc3ccccc3)ccc2c(O)c1[N+](=O)[O-] 6.00

What value of pIC50 has been recorded for this entry: O=C(O)c1ccc(OCCCOc2ccc3c(O)c([N+](=O)[O-])c(=O)oc3c2)cc1 5.00

Fill in: pIC50 of O=c1oc2ccc(OCCOc3ccccc3)cc2c(O)c1[N+](=O)[O-] is ___ 5.00

# lookup: pIC50 of COC(=O)c1ccc(OCCCOc2ccc3c(O)c([N+](=O)[O-])c(=O)oc3c2)cc1 5.00

Would you mind telling me what pIC50 value was observed for Cc1ccc(CCCCOc2ccc3c(O)c([N+](=O)[O-])c(=O)oc3c2)cc1 ? 6.00

Entry CC(=O)c1ccc(OCC(O)COc2ccc3c(O)c([N+](=O)[O-])c(=O)oc3c2)c(C)c1O (centres unmarked) has what pIC50? 7.00

Returns the measured pIC50 for the input compound. Input: O=c1oc2cc(OCCCCCCOc3ccccc3)ccc2c(O)c1[N+](=O)[O-] 5.00

Fill blank: measured pIC50 of the compound O=c1oc2cc(OCCc3ccccc3)ccc2c(O)c1[N+](=O)[O-] is ____. 6.00

Bench note: what pIC50 did CC(=O)c1ccc(CCCOc2ccc3c(O)c([N+](=O)[O-])c(=O)oc3c2)cc1 show? 6.00

Returns the measured pIC50 for the input compound. Input: Cc1cccc(OCCCOc2ccc3c(O)c([N+](=O)[O-])c(=O)oc3c2)c1 6.00

Quick one: pIC50 of CC(=O)c1ccc(OCCCOc2ccc3c(O)c([N+](=O)[O-])c(=O)oc3c2)cc1O ? 6.00

Consider the compound O=c1oc2cc(OCCCc3ccccc3)ccc2c(O)c1[N+](=O)[O-] and give its measured pIC50. 6.00

I have this compound here, CCCc1ccccc1OCC(O)COc1ccc2c(O)c([N+](=O)[O-])c(=O)oc2c1 (centres unmarked) , and I need its recorded pIC50. 7.00

// lookup pIC50 for O=c1oc2cc(OCCCOc3ccc(-c4ccccc4)cc3)ccc2c(O)c1[N+](=O)[O-] 5.00

Returns the measured pIC50 for the input compound. Input: O=c1oc2cc(OCCCCc3ccc(Cl)cc3)ccc2c(O)c1[N+](=O)[O-] 6.00

Given the compound O=c1oc2ccc(OCCCc3ccccc3)cc2c(O)c1[N+](=O)[O-] , what is its reported pIC50? 6.00

---

- System: slow reacting substance of anaphylaxis (SRS-A)
- test_protocol: SRS-A antagonism on isolated guinea pig ileum
- Set-up: species or system guinea pig ileum (SRS-A from rat)
- run_conditions: isolated guinea pig ileum strips, rat SRS-A, tyrode with atropine and mepyramine; 50% inhibition per method; read-out: SRS-A antagonism on Guinea Pig Ileum: Approximate concentration to give inhibition of a than maximal response to SRS-A
Could you please report measured IC50 for the items listed next?
Express your answer in nM, writing the number without its unit.

Would you kindly share the measured IC50 for O=c1oc2cc(OCC(O)COc3ccccc3)ccc2c(O)c1[N+](=O)[O-] (stereo not drawn) ? 10000

Suppose we examine the molecule O=c1oc2ccc(OCCCCCCOc3ccccc3)cc2c(O)c1[N+](=O)[O-] ; what IC50 value has been reported? 100

I have this molecule here, CC(=O)c1ccc(OCCCOc2ccc3c(O)c([N+](=O)[O-])c(=O)oc3c2)cc1 , and I need its recorded IC50. 1000
